Hello, the source for this data is patent US8933074B2, in case you need it.

- assay-system: Human PDE10A1 (Homo sapiens)
- Sequence (Q9Y233 1-779 isoform Q9Y233-1): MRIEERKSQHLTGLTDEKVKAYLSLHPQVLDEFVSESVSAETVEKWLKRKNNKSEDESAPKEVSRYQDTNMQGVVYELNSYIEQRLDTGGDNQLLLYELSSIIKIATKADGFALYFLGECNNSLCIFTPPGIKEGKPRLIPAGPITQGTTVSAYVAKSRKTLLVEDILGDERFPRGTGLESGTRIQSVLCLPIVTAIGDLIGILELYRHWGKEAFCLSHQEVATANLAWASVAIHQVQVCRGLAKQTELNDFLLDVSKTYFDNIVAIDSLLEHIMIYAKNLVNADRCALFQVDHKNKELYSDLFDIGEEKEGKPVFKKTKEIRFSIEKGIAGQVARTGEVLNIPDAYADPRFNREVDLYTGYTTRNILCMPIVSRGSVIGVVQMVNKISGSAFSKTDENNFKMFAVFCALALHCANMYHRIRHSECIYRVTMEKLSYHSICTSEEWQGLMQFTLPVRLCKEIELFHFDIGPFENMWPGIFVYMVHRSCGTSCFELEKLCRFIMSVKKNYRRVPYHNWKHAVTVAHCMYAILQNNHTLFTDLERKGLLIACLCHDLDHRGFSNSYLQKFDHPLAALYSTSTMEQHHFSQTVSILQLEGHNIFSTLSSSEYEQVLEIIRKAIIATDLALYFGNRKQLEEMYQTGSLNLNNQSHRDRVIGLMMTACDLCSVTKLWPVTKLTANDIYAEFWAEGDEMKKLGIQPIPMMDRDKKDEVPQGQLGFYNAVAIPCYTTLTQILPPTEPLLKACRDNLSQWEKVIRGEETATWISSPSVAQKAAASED
property-measured: IC50

molecule	IC50
CC1(C)OC(c2ccc(Cl)cc2)=C(c2ccc(OCc3ccc4ccccc4n3)cc2)C1=O [Example 147]	≤ 0.05 µM
CC1(C)OC(c2ccc(OCC3CC3)cc2)=C(c2ccc(OCc3ccc4ccccc4n3)cc2)C1=O [Example 161]	> 0.05 µM
O=C1OC2(CC2)C(c2ccncc2)=C1c1ccc(OCc2ccc3ccccc3n2)cc1 [Example 26]	> 0.05 µM

--- query ---
Query block: Item COc1ccc(C2=C(c3ccc(OCc4ccc5ccccc5n4)cc3)C(=O)C(C)(C)O2)cn1 [Example 133] with Human PDE10A1 (Homo sapiens) - IC50?
Result block: ≤ 0.05 µM
